# System: IGROV1 ovarian
# Experiment summary: NCI-60 one-dose screen, 48 h
# Measurement conditions: 10 µM
The panel holds about 83,000 compounds, 20% with a hit somewhere; the sample as a whole holds those more often. Calls of active or inactive are those of the source. Rule for the calls: active = growth percent below 10; inactive = the rest.
Outcome codes: 1 for active, 0 for inactive

molecule=CC(=O)Nc1ccc(S(=O)(=O)c2ccnc3cc(Cl)ccc23)cc1 cat=0
molecule=Cc1ccc(-n2nnnc2N)c(C)c1 cat=0
molecule=O=C1c2ccccc2C(=O)c2c1ccc1c(=O)n(-c3ccccc3C(F)(F)F)nnc21 cat=1
molecule=O=C(NCCCNS(=O)(=O)c1ccc(Cl)cc1)Nc1ccc(-n2cc(-c3ccncc3)c(-c3ccc(Cl)c(O)c3)n2)cc1 cat=0
molecule="Cc1ccc(NCCN(C)CC(C)O)c2c(=O)c3ccc(Cl)cc3sc12 (stereo not given)" cat=0
molecule=CC(=O)Nc1ccc(CC[C@H]2CCC/C=C/[C@@H]3C[C@H](O)C[C@H]3[C@H](O)/C=C/C(=O)O2)cc1 cat=0
molecule="CCCN(CCC)C(=O)[C@H](CC)[C@@H]1CC[C@@H](C)[C@@H]([C@H](C)[C@@H](O)[C@@H](C)C(=O)[C@H](CC)C2O[C@]3(C=C[C@@H](O)[C@]4(CC[C@@](C)([C@H]5CC[C@](O)(CC)[C@H](C)O5)O4)O3)[C@H](C)C[C@@H]2C)O1 (stereo not given in full)" cat=0
molecule="OCC1OC(n2ccc3c(NO)ncnc32)C(O)C1O (stereo not given)" cat=1
molecule=O=C(CCn1cnc2c(cc(-c3ccccc3)n2-c2ccccc2)c1=O)Nc1ccc(F)cc1 cat=0
molecule=O=C1/C(=C/c2ccc3c(c2)OCO3)SC(=S)N1C1c2ccccc2Oc2ccccc21 cat=0
molecule=O=C(CI)OCC(COC(=O)CI)OC(=O)CI cat=1
molecule=O=C(O)c1ccc(-n2cc(CNc3ccc(Cl)cc3)c(-c3ccccc3)n2)cc1 cat=0
molecule=COc1ccc(-c2nn(-c3cccc(Cl)c3)cc2-c2cc(-c3ccccc3)[nH]c(=O)c2C#N)cc1 cat=0
molecule=CCn1c(SC/C(=N/O)c2ccccc2)nnc1-c1ccccc1 cat=0
molecule=Clc1ccc2c(c1)C(N1CCNCC1)=Nc1ccccc1O2 cat=0
molecule=COc1cc(NC(=O)Nc2cnc(Nc3ccc(N4CCOCC4)cc3)nc2Oc2cccc(OC)c2)cc(OC)c1 cat=0
molecule=CC(C)(C)c1ccc(S(=O)(=O)Oc2ccc(NC(=O)C3CCCCC3)cc2)cc1 cat=0
molecule=C/C=C/CSC(C)(C)C(=O)NC cat=0
molecule=COc1ccc2nc3cc(Cl)ccc3c(Nc3cc(CN4CCCC4)c(O)c(CN4CCCC4)c3)c2n1 cat=0
molecule=CC(C)(C)c1ccc(S(=O)(=O)N[C@H]2CC[C@H]3[C@@H]4CCc5cc(O)c([N+](=O)[O-])cc5[C@H]4CC[C@]23C)cc1 cat=0

----------
# Tested on: MOLT-4 leukemia
# Experiment summary: NCI-60 one-dose screen, 48 h (100 = growth as untreated, 0 = no growth, -100 = all killed)
# Measurement conditions: 10 µM
Compounds without any hit were thinned out: in the full panel of roughly 83,000, 20% have a hit.
Observed property: growth (%)

compound=COc1ccc2c(c1)C(=O)/C(=C/c1ncc([N+](=O)[O-])n1C)O2 readout_number=-5.94
compound=CSc1ccc(-c2cc(-c3ccc(NC(=O)CCCN4CCCC4)cc3)nc(-c3ccc(NC(=O)CCCN4CCCC4)cc3)c2)cc1 readout_number=4.93
compound=CC(C)(C)OC(=O)N1CCc2c(sc3ncnc(N/N=C/c4ccccc4Br)c23)C1 readout_number=21.2
compound="CC(=O)N[C@H](C(=O)N[C@@H](CCCNC(=N)N)C(=O)N[C@@H](CCCCN)C(=O)N[C@@H](CCCNC(=N)N)C(=O)NC(C(=O)N[C@@H](CC(C)C)C(=O)N[C@@H](CCCNC(=N)N)C(=O)N[C@@]1(C)CCC/C=C\\CCC[C@@](C)(C(=O)N[C@@H](CCCNC(=N)N)C(=O)N[C@@H](CCC(=O)O)C(=O)N[C@@H](CC(C)C)C(=O)N[C@H](C(=O)N[C@@H](CCC(=O)O)C(N)=O)C(C)C)NC(=O)[C@H](CCC(N)=O)NC(=O)[C@H](CC(C)C)NC(=O)[C@H](CC(C)C)NC1=O)[C@@H](C)O)C(C)C (some centres undefined)" readout_number=32.7
